- TARGET_UNDER_TEST: TP-receptor (vascular, TPVASC) (Rattus norvegicus)
- Construct: measured in vitro in isolated smooth muscle preparations; from tissue; host or cells: rings of isolated rat thoracic aorta
- Sequence (P34978 whole entry): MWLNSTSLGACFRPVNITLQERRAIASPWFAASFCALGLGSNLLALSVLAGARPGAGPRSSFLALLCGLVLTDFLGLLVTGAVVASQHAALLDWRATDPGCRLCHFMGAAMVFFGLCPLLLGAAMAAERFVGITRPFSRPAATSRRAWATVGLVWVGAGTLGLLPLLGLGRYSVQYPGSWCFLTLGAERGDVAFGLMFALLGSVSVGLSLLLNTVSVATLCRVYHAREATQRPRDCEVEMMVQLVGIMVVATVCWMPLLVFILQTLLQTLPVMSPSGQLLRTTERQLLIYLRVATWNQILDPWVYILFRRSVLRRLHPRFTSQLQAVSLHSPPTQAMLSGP
- EXPERIMENT_DESCRIPTION: TP-vasoconstrictor activity: contraction of rings of isolated rat thoracic aorta, without or with SQ29,548
- CONDITION_LABEL: absence of SQ29,548; read-out: EC50 at TPVASC-receptor, rat aorta
MEASURED_METRIC: pEC50
pEC50 field: float, defined as -log10 of concentration (mol/L).

Q: Please report the recorded pEC50 for CCCCCC(O)/C=C/C1C2CC(OC(=O)O2)C1C/C=C\CCCC(=O)O (centres unmarked) [Example 7] .
A: 8.70

Let us move to another entry and its pEC50.
Q: Please report the recorded pEC50 for CCCCC[C@H](O)/C=C/[C@@H]1[C@@H](C/C=C\CCCCO)[C@@H]2C[C@H]1OC(=O)O2 [Example 4] .
A: 9.05

The values you see were collected from patent US20030109571A1.
